# System: Ralstonia solanacearum
# ASSAY PROTOCOL: Antibacterial activity against Ralstonia solanacearum CGMCC 1.12711 measured after 12 to 14 hrs
# Type: functional
ENDPOINT: MIC (µM)
# value in µM; strip the unit string

Examples with their reported MIC follow.
[[record]]
compound = "OCc1cc2c3ccccc3n(Cc3ccc(Cl)cc3)c2c(-c2c[nH]c3ccccc23)n1"
measurement_target = "Ralstonia solanacearum"
endpoint = "MIC"
endpoint_result = 12.5

[[record]]
compound = "OCc1cc2c3ccccc3n(Cc3ccccc3Cl)c2c(-c2c[nH]c3ccccc23)n1"
measurement_target = "Ralstonia solanacearum"
endpoint = "MIC"
endpoint_result = 25

[[record]]
compound = "OCc1cc2c3ccccc3n(Cc3cccc(Cl)c3)c2c(-c2c[nH]c3ccccc23)n1"
measurement_target = "Ralstonia solanacearum"
endpoint = "MIC"
endpoint_result = 50

[[record]]
compound = "Cc1ccccc1Cn1c2ccccc2c2cc(CO)nc(-c3c[nH]c4ccccc34)c21"
measurement_target = "Ralstonia solanacearum"
endpoint = "MIC"
endpoint_result = 12.5


// OCc1cc2c3ccccc3n(Cc3ccc(Br)cc3)c2c(-c2c[nH]c3ccccc23)n1 : MIC value = 1.56

// OCc1cc2c3ccccc3n(Cc3ccccc3)c2c(-c2c[nH]c3ccccc23)n1 : MIC value = 12.5

// C[C@@H]1O[C@@H]1P(=O)(O)O [PHOSPHOMYCIN DISODIUM] : MIC value = 50

// O=C(O)c1cn(C2CC2)c2cc(N3CCNCC3)c(F)cc2c1=O : MIC value = 3.12

// OCc1cc2c3ccccc3n(Cc3cccc(C(F)(F)F)c3)c2c(-c2c[nH]c3ccccc23)n1 : MIC value = 3.12

###

# System: Staphylococcus aureus
# ASSAY PROTOCOL: Antibacterial activity against methicillin-resistant Staphylococcus aureus ATCC 43300 measured after 12 to 14 hrs
# Assay type: functional
ENDPOINT: MIC

Examples with their reported MIC follow.
[[record]]
compound = "COC(=O)c1cc2c3ccccc3n(Cc3ccc(C(F)(F)F)cc3)c2c(-c2cn(C(C)=O)c3ccccc23)n1"
measurement_target = "Staphylococcus aureus"
endpoint_result = "> 100 µM"

[[record]]
compound = "OCc1cc2c3ccccc3n(Cc3ccc(C(F)(F)F)cc3)c2c(-c2c[nH]c3ccccc23)n1"
measurement_target = "Staphylococcus aureus"
endpoint_result = "25 µM"

[[record]]
compound = "C[C@@H]1O[C@@H]1P(=O)(O)O [PHOSPHOMYCIN DISODIUM]"
measurement_target = "Staphylococcus aureus"
endpoint_result = "50 µM"

[[record]]
compound = "COC(=O)c1cc2c3ccccc3n(Cc3ccc(F)cc3)c2c(-c2cn(C(C)=O)c3ccccc23)n1"
measurement_target = "Staphylococcus aureus"
endpoint_result = "> 100 µM"


Please look at the following compound next.
// OCc1cc2c3ccccc3n(Cc3ccccc3Br)c2c(-c2c[nH]c3ccccc23)n1 : MIC value = > 100 µM

###

# System: Staphylococcus aureus
# ASSAY PROTOCOL: Antibacterial activity against methicillin-resistant Staphylococcus aureus ATCC 43300 measured after 12 to 14 hrs
# Format: functional
Entries and their measured MIC follow.

[[record]]
line_notation = "COC(=O)c1cc2c3ccccc3n(Cc3cccc(F)c3)c2c(-c2cn(C(C)=O)c3ccccc23)n1"
endpoint = "MIC"
endpoint_result = "> 100 µM"


// COC(=O)c1cc2c3ccccc3n(Cc3ccccc3Cl)c2c(-c2cn(C(C)=O)c3ccccc23)n1 : MIC value = > 100 µM

// Cc1ccccc1Cn1c2ccccc2c2cc(CO)nc(-c3c[nH]c4ccccc34)c21 : MIC value = > 100 µM

###

Entries and their measured MIC follow.
# Test system: Staphylococcus aureus
# ASSAY PROTOCOL: Antibacterial activity against methicillin-resistant Staphylococcus aureus ATCC 43300 measured after 12 to 14 hrs
# Format: functional

Examples with their reported MIC follow.
[[record]]
line_notation = "COC(=O)c1cc2c3ccccc3n(Cc3ccccc3F)c2c(-c2cn(C(C)=O)c3ccccc23)n1"
endpoint_result = "> 100 µM"

[[record]]
line_notation = "Cc1cccc(Cn2c3ccccc3c3cc(CO)nc(-c4c[nH]c5ccccc45)c32)c1"
endpoint_result = "100 µM"


Please look at the following molecule next.
// OCc1cc2c3ccccc3n(Cc3cccc(Br)c3)c2c(-c2c[nH]c3ccccc23)n1 : MIC value = > 100 µM

Every entry's value here was drawn from ChEMBL document CHEMBL4270603.
